B1: HHH_rd2_0155 (parent)
chain: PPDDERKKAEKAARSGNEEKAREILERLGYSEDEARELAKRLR

Variants of: B1
Assay: folding stability dG (cDNA display proteolysis); higher = more stable
Conditions: PBS, room temperature
OBSERVATION TYPE: folding stability dG (kcal/mol)
Just the number please, in kcal/mol, no unit attached.

Worked examples follow.
>>> print(df.to_string())
                            sequence_record      observation_type  reported
0  PPDDERKKAEKAARSGNEENAREILERLGYSEDEARELAKRLR  folding stability dG      1.21
1  PPDDERKKAEKAARSGNEEKAGEILERLGYSEDEARELAKRLR  folding stability dG     0.568
2  PPDDERKKAVKAARSGNEEKAREILERLGYSEDEARELAKRLR  folding stability dG      2.23
3  PPDDERKKAEKAARSGNEEKAREILERLGYSEDEARELIKRLR  folding stability dG      2.75
4  PPDDERKKAEKAARSGNEEKAREILERLGYSEDEARELAKRDR  folding stability dG      0.37
5  PPDDERKKAEKAARSGNEEKAREILERLGYSEDEARMLAKRLR  folding stability dG      2.16
6  PPDDERKKAEKAARSGNEEKAREILEVLGYSEDEARELAKRLR  folding stability dG      1.01
7  PPDDERKKAEKAARSGNEEKAFEILERLGYSEDEARELAKRLR  folding stability dG      1.09

## Input # folding stability dG lookup, item PPDDERKKAEKAARSGNEEKAREILERLGYSESEARELAKRLR
## Output 2.13

## Input Proceed to PPDDERKKAEKAARSGNEEKAREILERMGYSEDEARELAKRLR
## Output 2.29

## Input Try this variant next: PPDDERKKREKAARSGNEEKAREILERLGYSEDEARELAKRLR
## Output 0.946

## Input Try this variant next: PPDDERKKAEFAARSGNEEKAREILERLGYSEDEARELAKRLR
## Output 2.01

## Input And then PPDDERKKAEKAARSGNEAKAREILERLGYSEDEARELAKRLR , what is it?
## Output 2.3

## Input Param item: PPDDEFKKAEKAARSGNEEKAREILERLGYSEDEARELAKRLR
## Output 3.38

## Input Also need PPDDNRKKAEKAARSGNEEKAREILERLGYSEDEARELAKRLR , thanks.
## Output 1.5

## Input // repeat for PPIDERKKAEKAARSGNEEKAREILERLGYSEDEARELAKRLR and report
## Output 1.95

## Input Do the same for PPDIERKKAEKAARSGNEEKAREILERLGYSEDEARELAKRLR please
## Output 2.17

## Input Also need PPDDERKKAEKAAFSGNEEKAREILERLGYSEDEARELAKRLR , thanks.
## Output 1.6

## Input Next: PPDDERKKAEKHARSGNEEKAREILERLGYSEDEARELAKRLR
## Output 1.9

## Input What do you get for PPDDERKKAEKAARSGNECKAREILERLGYSEDEARELAKRLR ?
## Output 2.27

## Input How about PPDDERKKAEKAARSGNEEKAREILERLGYSEDAARELAKRLR ?
## Output 1.78

## Input Next variant up: PPDDERKKAEKAARSGNEEKAREILERLGYSEDEPRELAKRLR
## Output -0.246

Data origin: the MegaScale stability set (Tsuboyama et al. 2023)
